Parameter solubility: see the listing below.
# procedure text: Solubility test in first and second liquid of the Japanese Pharmacopoeia
# condition label: second liquid of the Japanese Pharmacopoeia (JP2), pH 6.8, aqueous buffer, Solubility, Second liquid of Japanese Pharmacopoeia (μg/mL), JP2, pH=6.8
Form entry: value (µg/mL) — number only.

Check out these entries, answers already filled in.
CO[C@H]1CN([C@H]2C[C@@H](CO[C@H]3CC[C@H](C(=O)O)CC3)N(C(=O)Cc3cc(Cl)c(NC(=O)c4csc5ccccc45)cc3F)C2)C[C@@H]1OC ... 1000
CO[C@H]1CN([C@H]2C[C@@H](CO[C@H]3CC[C@H](C(=O)O)CC3)N(C(=O)Cc3cc(Cl)c(NC(=O)c4cn(C)c5ccccc45)cc3Cl)C2)C[C@@H]1OC ... 1000
Cn1cc(C(=O)Nc2cc(F)c(CC(=O)N3C[C@@H](N4CCN(CCF)CC4)C[C@H]3CO[C@H]3CC[C@H](C(=O)O)CC3)cc2Cl)c2ccccc21 ... 1000
O=C(Nc1cc(Cl)c(CC(=O)N2C[C@@H](N3CCCC3)C[C@H]2CO[C@H]2CC[C@H](C(=O)O)CC2)cc1Cl)c1csc2ccccc12 ... 1680
Cn1cc(C(=O)Nc2cc(Cl)c(CC(=O)N3C[C@@H](N4CC(C)(C)C4)C[C@H]3CO[C@H]3CC[C@H](C(=O)O)CC3)cc2Cl)c2ccccc21 ... 1100
Cn1cc(C(=O)Nc2cc(F)c(CC(=O)N3C[C@@H](N4CC(C)(C)C4)C[C@H]3CO[C@H]3CC[C@H](C(=O)O)CC3)cc2Cl)c2ccccc21 ... 1000

The molecule O=C(Nc1cc(Cl)c(CC(=O)N2C[C@@H](N3C[C@@H]4OCO[C@@H]4C3)C[C@H]2CO[C@H]2CC[C@H](C(=O)O)CC2)cc1Cl)c1coc2ccccc12 showed solubility equal to 1000

Noted for CN(C)C(=O)C1CCN([C@H]2C[C@@H](CO[C@H]3CC[C@H](C(=O)O)CC3)N(C(=O)Cc3cc(Cl)c(NC(=O)c4coc5ccccc45)cc3Cl)C2)CC1 : its solubility reads 1200

molecule CN(C)CC1CN([C@H]2C[C@@H](CO[C@H]3CC[C@H](C(=O)O)CC3)N(C(=O)Cc3cc(Cl)c(NC(=O)c4cn(C)c5ccccc45)cc3F)C2)C1 , solubility observed: 1000

====

# tested target: hα4 and β1 integrins (Homo sapiens, UniProt P05556+P13612)
# Sequence (P13612 34-1032): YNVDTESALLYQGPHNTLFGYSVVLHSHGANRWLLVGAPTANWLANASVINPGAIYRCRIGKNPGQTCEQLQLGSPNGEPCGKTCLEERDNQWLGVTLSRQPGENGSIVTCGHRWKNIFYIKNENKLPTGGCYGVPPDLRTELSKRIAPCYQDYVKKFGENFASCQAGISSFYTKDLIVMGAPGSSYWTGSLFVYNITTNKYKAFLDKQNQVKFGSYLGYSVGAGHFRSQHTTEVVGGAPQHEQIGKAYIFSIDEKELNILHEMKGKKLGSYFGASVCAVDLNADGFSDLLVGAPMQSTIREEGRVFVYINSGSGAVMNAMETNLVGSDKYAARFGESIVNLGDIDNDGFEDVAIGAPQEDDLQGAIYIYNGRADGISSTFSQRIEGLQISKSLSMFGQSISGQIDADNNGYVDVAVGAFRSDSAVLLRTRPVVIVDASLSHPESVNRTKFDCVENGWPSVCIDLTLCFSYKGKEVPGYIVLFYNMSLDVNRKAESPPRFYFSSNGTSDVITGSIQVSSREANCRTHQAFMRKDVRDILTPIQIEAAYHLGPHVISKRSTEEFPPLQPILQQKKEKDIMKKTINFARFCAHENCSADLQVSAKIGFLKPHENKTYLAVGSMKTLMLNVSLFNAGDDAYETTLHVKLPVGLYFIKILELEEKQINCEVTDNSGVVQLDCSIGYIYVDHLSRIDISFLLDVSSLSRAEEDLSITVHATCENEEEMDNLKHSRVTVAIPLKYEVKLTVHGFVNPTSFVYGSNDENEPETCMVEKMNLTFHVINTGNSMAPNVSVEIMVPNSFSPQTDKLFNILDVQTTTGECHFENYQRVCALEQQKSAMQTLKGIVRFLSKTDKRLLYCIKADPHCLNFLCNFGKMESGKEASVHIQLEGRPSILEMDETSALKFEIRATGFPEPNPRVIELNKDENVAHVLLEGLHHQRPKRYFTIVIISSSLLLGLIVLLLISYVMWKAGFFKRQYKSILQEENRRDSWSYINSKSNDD
# Sequence (P05556 21-798): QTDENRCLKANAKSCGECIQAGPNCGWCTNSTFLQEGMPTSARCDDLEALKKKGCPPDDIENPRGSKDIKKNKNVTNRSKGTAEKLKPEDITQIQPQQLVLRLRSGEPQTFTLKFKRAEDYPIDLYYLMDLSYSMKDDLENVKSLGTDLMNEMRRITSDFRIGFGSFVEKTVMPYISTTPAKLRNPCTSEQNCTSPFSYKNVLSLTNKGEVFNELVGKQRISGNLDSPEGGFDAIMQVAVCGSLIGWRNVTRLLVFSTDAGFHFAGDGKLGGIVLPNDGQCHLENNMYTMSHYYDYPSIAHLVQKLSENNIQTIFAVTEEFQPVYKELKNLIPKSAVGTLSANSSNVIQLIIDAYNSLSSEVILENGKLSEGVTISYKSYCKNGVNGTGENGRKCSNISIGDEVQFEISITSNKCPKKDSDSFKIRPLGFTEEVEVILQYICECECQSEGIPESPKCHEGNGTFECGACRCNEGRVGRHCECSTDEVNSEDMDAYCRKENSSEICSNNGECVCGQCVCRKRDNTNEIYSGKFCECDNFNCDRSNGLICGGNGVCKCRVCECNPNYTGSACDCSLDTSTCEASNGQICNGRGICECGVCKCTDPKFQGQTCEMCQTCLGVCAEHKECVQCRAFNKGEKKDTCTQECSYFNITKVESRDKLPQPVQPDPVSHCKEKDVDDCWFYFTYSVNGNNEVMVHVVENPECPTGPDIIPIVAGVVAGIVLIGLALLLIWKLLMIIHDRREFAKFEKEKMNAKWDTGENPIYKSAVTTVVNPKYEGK
# procedure text: In vitro inhibition of binding between CHO cells expressing hα4 and β1 integrins and Eu3+-hVCAM-1 D1D7-IgG
# condition label: in the presence of 3% human serum albumin (HSA final concentration 3%)
Listing: pIC50 of selected compounds
Remember, pIC50 is on a log scale: it is -log10 of the molar concentration.

Consider the reported pIC50 for these compounds:
C[C@@H]1CN([C@H]2C[C@@H](CO[C@H]3CC[C@H](C(=O)O)CC3)N(C(=O)Cc3ccc(NC(=O)c4nccc5ccccc45)c(Cl)c3)C2)C[C@H](C)O1 ... 7.57
CO[C@H]1CN([C@H]2C[C@@H](CO[C@H]3CC[C@H](C(=O)O)CC3)N(C(=O)Cc3cc(Cl)c(NC(=O)c4coc5ccccc45)cc3Cl)C2)C[C@H]1OC ... 7.74
COC1CN([C@H]2C[C@@H](CO[C@H]3CC[C@H](C(=O)O)CC3)N(C(=O)Cc3cc(Cl)c(NC(=O)c4cn(C)c5ccccc45)cc3Cl)C2)C1 (relative stereo) ... 7.77
CCO[C@@H]1CCN([C@H]2C[C@@H](CO[C@H]3CC[C@H](C(=O)O)CC3)N(C(=O)Cc3cc(Cl)c(NC(=O)c4csc5ccccc45)cc3F)C2)C1 ... 8.00

Please turn your attention to the following entry.
What the record says about O=C(Nc1cc(F)c(CC(=O)N2C[C@@H](N3CCC3)C[C@H]2CO[C@H]2CC[C@H](C(=O)O)CC2)cc1Cl)c1csc2ccccc12 : pIC50 is 8.09
